Experiment: Aerated and tapped bulk density of SB-207266-A
Assay type: physicochemical
Settings: SB-207266-A batches from Description 1
Value type: Aerated bulk density (g/mL)

>  <Compound>
CCCCN1CCC(CNC(=O)c2c3n(c4ccccc24)CCCO3)CC1.Cl [BDC-H-01C]

>  <Experimental value>
0.136

$$$$
>  <Compound>
CCCCN1CCC(CNC(=O)c2c3n(c4ccccc24)CCCO3)CC1.Cl [BDC-G-03C]

>  <Experimental value>
0.173

$$$$
>  <Compound>
CCCCN1CCC(CNC(=O)c2c3n(c4ccccc24)CCCO3)CC1.Cl [BDC-G-02C]

>  <Experimental value>
0.142

$$$$
>  <Compound>
CCCCN1CCC(CNC(=O)c2c3n(c4ccccc24)CCCO3)CC1.Cl [BDC-G-05C]

>  <Experimental value>
0.152

$$$$
>  <Compound>
CCCCN1CCC(CNC(=O)c2c3n(c4ccccc24)CCCO3)CC1.Cl [BDC-G-04C]

>  <Experimental value>
0.146

$$$$
